These entries and their values trace back to patent US20220288057A1.

Assay: Plasma and brain concentrations in 6 Hz studies (LC-MS/MS)
Format: in vivo, mouse
Conditions: mouse, plasma, oral, Study 3C, analyte Compound A; 4 mg/kg PO + Levetiracetam 300 mg/kg IP; read-out: Plasma
Experimental: Sample Collection and Preparation: Mice were anesthetized by isoflurane inhalation (TECH-018) until they reached a surgical plane of anesthesia. Then a syringe (1 mL syringe with a 22 gauge needle) was inserted under the sternum into the heart (TECH-031). Approximately 0.5 mL of blood was collected, deposited into a K2EDTA tube, and stored on ice. Animals were then euthanized by cervical dislocation (TECH-018). […] Samples were analyzed by a research-grade LC-MS/MS method as follows: […]
Outcome Measure: concentration at 1 h (nM)
One number for each entry, in nM.

Query (molecule): Cc1cc(N2CCc3cc(F)ccc3C2)cc(C)c1NC(=O)CC(C)(C)C ; field requested: concentration at 1 h 170

====

assay: Plasma and brain concentrations in 6 Hz studies (LC-MS/MS); type: in vivo, mouse; settings: mouse, brain, oral, Study 3B, analyte Compound A; 4 mg/kg PO + Levetiracetam 300 mg/kg IP; read-out: Brain
Outcome Measure: concentration at 1 h
Reply with the number and its unit after it.

Query (compound): Cc1cc(N2CCc3cc(F)ccc3C2)cc(C)c1NC(=O)CC(C)(C)C ; field requested: concentration at 1 h 40 nM

====

test: Terminal plasma and brain concentrations in AC-MES studies (UHPLC-MS/MS); format: in vivo, mouse; conditions: CF-1, mouse, in vivo, 5 mg/kg, Study 4F; Cenobamate 5 mg/kg PO alone, 2 h pre-treatment; CF-1 mice; read-out: Mean Brain
Outcome Measure: concentration at 2 h
Reply with the number and its unit after it.

Query (compound): NC(=O)O[C@@H](Cn1ncnn1)c1ccccc1Cl [Cenobamate, reference compound] ; field requested: concentration at 2 h 12 µM

====

test: Terminal plasma and brain concentrations in AC-MES studies (UHPLC-MS/MS); format: in vivo, mouse; conditions: male, CF-1, mouse, in vivo, po, 10 mg/kg, Study 4B, Compound A 10 mg/kg PO, 0.5 h; read-out: mean plasma concentration
Outcome Measure: concentration at 0.5 h

Query (molecule): Cc1cc(N2CCc3cc(F)ccc3C2)cc(C)c1NC(=O)CC(C)(C)C ; field requested: concentration at 0.5 h 550 nM

====

assay: Terminal plasma and brain concentrations in AC-MES studies (UHPLC-MS/MS); format: in vivo, mouse; details: CF-1, mouse, in vivo, 6 mg/kg, Study 2D, Lacosamide 6 mg/kg PO, 2 h; read-out: Mean Plasma
Outcome Measure: concentration at 2 h (µM)
Numbers only, in µM.

Query (molecule): COC[C@@H](NC(C)=O)C(=O)NCc1ccccc1 [Lacosamide, reference compound] ; field requested: concentration at 2 h 6.9

====

assay: Plasma and brain concentrations after MES testing (UHPLC-ESI-MS/MS); settings: CF-1, mouse, in vivo, po, 4 mg/kg, Concentration Brain, Compound A 4 mg/kg PO single dose, tissue collection 0.5 hr;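 further: brain and plasma were sampled from mice right after the efficacy test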
Outcome Measure: concentration at 0.5 h (nM)
Answers are plain numbers, in nM.

Query (compound): Cc1cc(N2CCc3cc(F)ccc3C2)cc(C)c1NC(=O)CC(C)(C)C [Compound A] ; field requested: concentration at 0.5 h 640

====

assay: Plasma and brain concentrations in 6 Hz studies (LC-MS/MS); type: in vivo, mouse; conditions: mouse, brain, oral, Studies 3B+3C combined, analyte Compound A; 4 mg/kg PO + Levetiracetam 300 mg/kg IP; read-out: Brain
Outcome Measure: concentration at 1 h (nM)
Numbers only, in nM.

Query (compound): Cc1cc(N2CCc3cc(F)ccc3C2)cc(C)c1NC(=O)CC(C)(C)C ; field requested: concentration at 1 h 210
